conditions: in ethyl acetate, 288.15 K
ATTRIBUTE_MEASURED: solubility (mole fraction)

• O=C(O)c1cc([N+](=O)[O-])cc([N+](=O)[O-])c1O = 0.0554

###

conditions: in 1,4-dioxane, 308.15 K
ATTRIBUTE_MEASURED: solubility (mole fraction)

• O=C(O)c1cc([N+](=O)[O-])cc([N+](=O)[O-])c1O = 0.0695

###

conditions: in ethanol, 303.15 K
ATTRIBUTE_MEASURED: solubility (mole fraction)

• O=C(O)c1cc([N+](=O)[O-])cc([N+](=O)[O-])c1O = 0.0862

###

conditions: in ethyl acetate, 298.15 K
ATTRIBUTE_MEASURED: solubility (mole fraction)

* O=C(O)c1cc([N+](=O)[O-])cc([N+](=O)[O-])c1O | 0.0687

###

settings: in n-butanol, 318.15 K
ATTRIBUTE_MEASURED: solubility (mole fraction)

• O=C(O)c1cc([N+](=O)[O-])cc([N+](=O)[O-])c1O = 0.049

###

settings: in ethanol, 308.15 K
ATTRIBUTE_MEASURED: solubility (mole fraction)

- O=C(O)c1cc([N+](=O)[O-])cc([N+](=O)[O-])c1O: 0.0977

###

conditions: in isobutanol, 288.15 K
ATTRIBUTE_MEASURED: solubility (mole fraction)

• O=C(O)c1cc([N+](=O)[O-])cc([N+](=O)[O-])c1O = 0.0198

###

settings: in DMF, 303.15 K
ATTRIBUTE_MEASURED: solubility (mole fraction)

- O=C(O)c1cc([N+](=O)[O-])cc([N+](=O)[O-])c1O: 0.152

###

details: in n-propanol, 288.15 K
ATTRIBUTE_MEASURED: solubility (mole fraction)

* O=C(O)c1cc([N+](=O)[O-])cc([N+](=O)[O-])c1O | 0.0456

###

details: in isobutanol, 313.15 K
ATTRIBUTE_MEASURED: solubility (mole fraction)

- O=C(O)c1cc([N+](=O)[O-])cc([N+](=O)[O-])c1O: 0.0506

###

conditions: in ethylene glycol, 288.15 K
ATTRIBUTE_MEASURED: solubility (mole fraction)

• O=C(O)c1cc([N+](=O)[O-])cc([N+](=O)[O-])c1O = 0.0316

###

conditions: in DMSO, 323.15 K
ATTRIBUTE_MEASURED: solubility (mole fraction)

- O=C(O)c1cc([N+](=O)[O-])cc([N+](=O)[O-])c1O: 0.172

###

details: in isobutanol, 293.15 K
ATTRIBUTE_MEASURED: solubility (mole fraction)

• O=C(O)c1cc([N+](=O)[O-])cc([N+](=O)[O-])c1O = 0.0244

###

settings: in DMF, 323.15 K
ATTRIBUTE_MEASURED: solubility (mole fraction)

• O=C(O)c1cc([N+](=O)[O-])cc([N+](=O)[O-])c1O = 0.241

###

settings: in DMF, 308.15 K
ATTRIBUTE_MEASURED: solubility (mole fraction)

* O=C(O)c1cc([N+](=O)[O-])cc([N+](=O)[O-])c1O | 0.171

###

settings: in acetonitrile, 323.15 K
ATTRIBUTE_MEASURED: solubility (mole fraction)

- O=C(O)c1cc([N+](=O)[O-])cc([N+](=O)[O-])c1O: 0.0485

###

conditions: in isopropanol, 283.15 K
ATTRIBUTE_MEASURED: solubility (mole fraction)

• O=C(O)c1cc([N+](=O)[O-])cc([N+](=O)[O-])c1O = 0.03

###

conditions: in n-butanol, 308.15 K
ATTRIBUTE_MEASURED: solubility (mole fraction)

- O=C(O)c1cc([N+](=O)[O-])cc([N+](=O)[O-])c1O: 0.0345

###

conditions: in acetonitrile, 298.15 K
ATTRIBUTE_MEASURED: solubility (mole fraction)

* O=C(O)c1cc([N+](=O)[O-])cc([N+](=O)[O-])c1O | 0.0209

###

details: in 1,4-dioxane, 293.15 K
ATTRIBUTE_MEASURED: solubility (mole fraction)

• O=C(O)c1cc([N+](=O)[O-])cc([N+](=O)[O-])c1O = 0.0495

###

conditions: in ethanol, 313.15 K
ATTRIBUTE_MEASURED: solubility (mole fraction)

• O=C(O)c1cc([N+](=O)[O-])cc([N+](=O)[O-])c1O = 0.11

###

details: in 1,4-dioxane, 323.15 K
ATTRIBUTE_MEASURED: solubility (mole fraction)

- O=C(O)c1cc([N+](=O)[O-])cc([N+](=O)[O-])c1O: 0.0994

###

settings: in ethanol, 293.15 K
ATTRIBUTE_MEASURED: solubility (mole fraction)

- O=C(O)c1cc([N+](=O)[O-])cc([N+](=O)[O-])c1O: 0.0659

###

settings: in DMF, 283.15 K
ATTRIBUTE_MEASURED: solubility (mole fraction)

* O=C(O)c1cc([N+](=O)[O-])cc([N+](=O)[O-])c1O | 0.0951

###

details: in cyclohexane, 323.15 K
ATTRIBUTE_MEASURED: solubility (mole fraction)

• O=C(O)c1cc([N+](=O)[O-])cc([N+](=O)[O-])c1O = 0.0156

###

conditions: in ethanol, 318.15 K
ATTRIBUTE_MEASURED: solubility (mole fraction)

- O=C(O)c1cc([N+](=O)[O-])cc([N+](=O)[O-])c1O: 0.124

###

conditions: in NMP, 283.15 K
ATTRIBUTE_MEASURED: solubility (mole fraction)

• O=C(O)c1cc([N+](=O)[O-])cc([N+](=O)[O-])c1O = 0.103

###

settings: in acetonitrile, 308.15 K
ATTRIBUTE_MEASURED: solubility (mole fraction)

• O=C(O)c1cc([N+](=O)[O-])cc([N+](=O)[O-])c1O = 0.029

###

conditions: in n-butanol, 298.15 K
ATTRIBUTE_MEASURED: solubility (mole fraction)

* O=C(O)c1cc([N+](=O)[O-])cc([N+](=O)[O-])c1O | 0.024

###

details: in DMF, 278.15 K
ATTRIBUTE_MEASURED: solubility (mole fraction)

• O=C(O)c1cc([N+](=O)[O-])cc([N+](=O)[O-])c1O = 0.0853

###

conditions: in ethyl acetate, 303.15 K
ATTRIBUTE_MEASURED: solubility (mole fraction)

* O=C(O)c1cc([N+](=O)[O-])cc([N+](=O)[O-])c1O | 0.0771

###

settings: in acetonitrile, 293.15 K
ATTRIBUTE_MEASURED: solubility (mole fraction)

• O=C(O)c1cc([N+](=O)[O-])cc([N+](=O)[O-])c1O = 0.0177

###

settings: in isopropanol, 303.15 K
ATTRIBUTE_MEASURED: solubility (mole fraction)

* O=C(O)c1cc([N+](=O)[O-])cc([N+](=O)[O-])c1O | 0.053

###

settings: in water, 318.15 K
ATTRIBUTE_MEASURED: solubility (mole fraction)

* O=C(O)c1cc([N+](=O)[O-])cc([N+](=O)[O-])c1O | 0.00301

###

conditions: in isobutanol, 278.15 K
ATTRIBUTE_MEASURED: solubility (mole fraction)

• O=C(O)c1cc([N+](=O)[O-])cc([N+](=O)[O-])c1O = 0.0139

###

settings: in water, 308.15 K
ATTRIBUTE_MEASURED: solubility (mole fraction)

* O=C(O)c1cc([N+](=O)[O-])cc([N+](=O)[O-])c1O | 0.00198

###

details: in ethyl acetate, 283.15 K
ATTRIBUTE_MEASURED: solubility (mole fraction)

• O=C(O)c1cc([N+](=O)[O-])cc([N+](=O)[O-])c1O = 0.0501
